- Measured Target: influenza A virus (IAV) PA-Nter fragment (amino acids 1-209) (Influenza A virus, UniProt P31343)
Strictly below 1000 nM in IC50: fulfilled. Otherwise: not fulfilled.

Past entries and their recorded results:
Structure Smiles String | Class Name
CNC(=O)c1c(O)c(=O)cc(CNS(=O)(=O)c2ccccc2Cl)n1C | not fulfilled
Cn1c(CNS(=O)(=O)c2ccccc2Cl)cc(=O)c(O)c1C(=O)O | fulfilled
Cn1c(Cc2ccccc2-c2ccccc2)cc(=O)c(O)c1C(=O)O | fulfilled
Cc1ccccc1S(=O)(=O)NCc1cc(=O)c(O)c(C(=O)NC(C)C)n1C | not fulfilled
Cn1c(CNS(=O)(=O)c2ccccc2)cc(=O)c(O)c1C(=O)O | fulfilled

Please state whether IC50 is below 1000 nM for Cn1c(CNS(=O)(=O)c2ccc(Cl)cc2)cc(=O)c(O)c1C(=O)O
not fulfilled

Query Cc1cccc(S(=O)(=O)NCc2cc(=O)c(O)c(C(=O)O)n2C)c1 next
fulfilled

Try the compound Cn1c(CNS(=O)(=O)c2cccc(Cl)c2)cc(=O)c(O)c1C(=O)O
fulfilled

Now consider Cc1ccccc1S(=O)(=O)NCc1cc(=O)c(O)c(C(=O)O)n1C and answer again.
fulfilled

Please answer likewise for CNC(=O)c1c(O)c(=O)cc(CNS(=O)(=O)c2ccccc2C)n1C
not fulfilled

Same lookup for CC(C)NC(=O)c1c(O)c(=O)cc(CNS(=O)(=O)c2ccccc2Cl)n1C , please.
not fulfilled

---

- Measured Target: influenza A virus (IAV) PA-Nter fragment (amino acids 1-209) (Influenza A virus)
- Construct: PA-Nter fragment (amino acids 1-209); made in house
- Assay Comment: FRET endonuclease activity assay
- Assay type: biochemical
- Measurement Parameters: 10 μM compound; % reduction of v0 compared to untreated
Measured Metric: inhibition at 10 µM (%)
Supply the numeric figure in %, leaving out any unit text.

Report inhibition at 10 µM for Cc1cccc(S(=O)(=O)NCc2cc(=O)c(O)c(C(=O)NC(C)C)n2C)c1 please.
36

Do the same for CNC(=O)c1c(O)c(=O)cc(CNS(=O)(=O)c2cccc(Cl)c2)n1C please
23

Input Cn1c(Cc2ccccc2-c2ccccc2)cc(=O)c(O)c1C(N)=O
17

Thanks! And CC(C)NC(=O)c1c(O)c(=O)cc(Cc2ccccc2-c2ccccc2)n1C ?
13

Repeat with CNC(=O)c1c(O)c(=O)cc(Cc2ccccc2-c2ccccc2)n1C
10

---

- Measured Target: influenza A virus (IAV) PA-Nter fragment (amino acids 1-209) (Influenza A virus)
- Construct: PA-Nter fragment (amino acids 1-209); made in house
- Assay Comment: FRET endonuclease activity assay
- Type: biochemical
- Measurement Parameters: 10 μM compound; % reduction of v0 compared to untreated
Form field: inhibition at 10 µM (one value per entry).
A bare number is not enough; add the unit after it.

Here are 3 compounds together with their reported answers.
Compound | inhibition at 10 µM
CNC(=O)c1c(O)c(=O)cc(CNS(=O)(=O)c2ccccc2)n1C | 13%
CC(C)NC(=O)c1c(O)c(=O)ccn1C(C)Cc1ccccc1 (stereo not shown) | 7%
CNC(=O)c1c(O)c(=O)cc(CNS(=O)(=O)c2ccc(Cl)cc2)n1C | 7%

Consider the record given below.
Fill blank: measured inhibition at 10 µM of the compound Cc1ccc(S(=O)(=O)NCc2cc(=O)c(O)c(C(=O)NC(C)C)n2C)cc1 is ____.
8%
